# system: DLG1_2, Q12959
# Sequence (Q12959 314-412): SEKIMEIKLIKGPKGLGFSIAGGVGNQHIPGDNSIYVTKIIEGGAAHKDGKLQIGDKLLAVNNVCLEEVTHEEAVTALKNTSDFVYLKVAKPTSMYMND
# test.name: holdup assay
# Set-up: key: below the threshold = too weak to quantify, mostly under pKd 3.1 to 4
# test.conditions: plain residues with an end cap or a label only (N-terminal biotin on a linker: ado-ado)
Assign pKd to each entry below.
Lab note: write the figure by itself, no unit.

q: Dear colleague, I am looking for the recorded pKd of the following binder: SRPHTNETSL [MCC, P23508]
a: 4.19

q: Another: LPPPESESKV [KCNJ9, Q92806]
a: 3.54

q: Another: IGHEDLETAV [DGKI, O75912]
a: 5.11

q: Another: DFKHTKSFII [JAM2, P57087]
a: 3.81

q: Another: HYPASPDSWV [CTNND2, Q9UQB3]
a: 4.65

q: Another: NSTHNLKDYV [CLDN20, P56880]
a: 3.5

q: Another: PSVYSRSQYV [CLDN8, P56748]
a: 3.86

q: Another: WAKEKQHTRL [SLC17A1, Q14916]
a: 4.27

q: Another: KAEEKPPSKV [SCN4B, Q8IWT1]
a: 3.52

Where these numbers come from: paper PMC9482650
